Provenance of the data: patent US20180171001A1

- target entity: Env of HIV-1 strain REJO4541.67 (HIV-1)
- method: cell-based or functional assay
# neutralization IC50 listing for each entry below

binder	u	comparator	neutralization IC50
γ8κ3 (antibody, V domains shown) VH: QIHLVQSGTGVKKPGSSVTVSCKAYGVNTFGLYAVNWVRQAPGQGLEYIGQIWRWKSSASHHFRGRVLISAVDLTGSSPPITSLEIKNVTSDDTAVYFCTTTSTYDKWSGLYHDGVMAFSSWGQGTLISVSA VL: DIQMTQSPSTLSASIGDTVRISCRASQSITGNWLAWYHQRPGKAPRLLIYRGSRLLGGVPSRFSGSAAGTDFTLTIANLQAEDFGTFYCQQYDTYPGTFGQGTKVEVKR	µg/mL	>	15
γ15κ61 (antibody, V domains shown) VH: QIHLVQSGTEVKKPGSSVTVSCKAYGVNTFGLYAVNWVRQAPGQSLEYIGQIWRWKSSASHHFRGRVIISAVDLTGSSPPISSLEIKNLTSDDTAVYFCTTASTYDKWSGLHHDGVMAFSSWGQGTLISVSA VL: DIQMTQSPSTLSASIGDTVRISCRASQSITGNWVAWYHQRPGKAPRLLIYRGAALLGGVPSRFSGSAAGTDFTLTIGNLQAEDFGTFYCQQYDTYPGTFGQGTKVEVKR	µg/mL	=	2.03
